Origin of measurements: the METLIN SMRT retention time set (Domingo-Almenara et al. 2019)

experiment: gradient 5% acetonitrile 3 min, to 50% in 2 min, to 85% in 15 min, held 3 min, 100 µL/min; settings: column: Zorbax Extend-C18 2.1 x 50 mm; eluents: water / acetonitrile, 0.1% formic acid
reported endpoint: RP-LC retention time (s)
Give bare numbers, in s.

O=C(NC1CCCC1)C1CCN(C(=O)c2ccc(-c3noc(C4CC4)n3)cc2)CC1 :: 813
Cc1nnc(N2CCCC(C(=O)NCCCOC(C)C)C2)c2nn(-c3ccccc3)c(C)c12 (centres undefined) :: 678
CC(C)c1ccc(-n2ncc3c(=O)n(Cc4nc(-c5ccc(Cl)cc5)no4)cnc32)cc1 :: 1320
COc1cc(OC)c(NC(=O)Cc2cn3cc(F)ccc3n2)cc1Cl :: 637

Dear reader, for each entry below, please note its RP-LC retention time.
1. CC(=O)N1CCC2(CC1)CC(CC(=O)O)CCO2 (centres undefined)
2. CCOc1ccccc1NC(=O)C1CCc2nc(N3CCOCC3)ncc2C1 (centres undefined)

## Output
1. 588
2. 777

Dear reader, for each entry below, please note its RP-LC retention time.
1. CCOc1ccc(-c2nc(CN3C(=O)C(O)(c4ccccc4)c4ccccc43)c(C)o2)cc1 (centres undefined)
2. CCn1nnc2cc(-c3noc(CNC(=O)Cc4ccc(Cl)cc4)n3)ccc21
3. CC(C)CC(=O)N1CCC(COc2ccc(C(=O)NC(C)C)cc2)CC1

## Output
[1110, 816, 801]

* * *

assay: gradient 5% acetonitrile 3 min, to 50% in 2 min, to 85% in 15 min, held 3 min, 100 µL/min; conditions: column: Zorbax Extend-C18 2.1 x 50 mm; eluents: water / acetonitrile, 0.1% formic acid
Short version: RP-LC retention time at least 1000 s is criterion met, less is criterion not met.

O=C(Nc1ccccc1F)C1CCCN(S(=O)(=O)c2cc(-c3noc(C4CCC4)n3)cs2)C1 (stereo not given) :: criterion met
COc1ccc(Cl)cc1NC(=O)CSc1nnc2c3cc(-c4ccc(C)c(C)c4)nn3ccn12 :: criterion met
O=C(Cn1c(=O)oc2ccccc21)Nc1nc(-c2ccc(Br)cc2)cs1 :: criterion met

## Input In plain terms: is recorded RP-LC retention time at least 1000 s for O=C(Nc1nccs1)c1cc(N2C(=O)C3C4CCC(C4)C3C2=O)ccc1Cl (stereo not given) ?
## Output criterion not met

* * *

Please provide measured RP-LC retention time for the entries that follow.
assay: gradient 5% acetonitrile 3 min, to 50% in 2 min, to 85% in 15 min, held 3 min, 100 µL/min; conditions: column: Zorbax Extend-C18 2.1 x 50 mm; eluents: water / acetonitrile, 0.1% formic acid
One number for each entry, in s.

Dear reader, for each entry below, please note its RP-LC retention time.
1. COCCNC(=O)C(=O)Nc1ccc(Br)cc1F
2. CNC(=O)N1CC(C)Oc2ccc(C)cc21 (stereo unspecified)

## Output
1: 839; 2: 765

Dear reader, for each entry below, please note its RP-LC retention time.
1. CC(C)c1cc(C(=O)Nc2ccccc2F)no1
2. COc1ccc(NC(=O)c2ccccc2NC(=O)C2CCN(C(=O)C(C)(C)C)CC2)cc1
3. CN(C)c1cccc(-c2nc(-c3cn(Cc4ccc(F)cc4)nn3)no2)c1

## Output
1. 1020
2. 868
3. 1030

Dear reader, for each entry below, please note its RP-LC retention time.
1. CCCn1nc(CNC(=O)c2cccs2)c2ccccc21
2. CC(=O)N1CCCN(C2=NS(=O)(=O)C(c3ccc(F)cc3)=C2C)CC1

## Output
[785, 690]

Dear reader, for each entry below, please note its RP-LC retention time.
1. COc1cccc(CC(=O)N2CCC(Nc3ncnc4c3CCC4)C2)c1 (stereo unspecified)
2. CCc1nc2cccnc2n1CCN1CCN(C(=O)Nc2ccccc2Br)CC1
3. Cc1cc(C)n(CCC(=O)NCC2Cn3cccc3C(=O)N2C)n1 (stereo unspecified)
4. CCN(C(=O)Cc1c(C(=O)O)c(C)cn1C)c1ccccc1

## Output
604
641
593
722

* * *

test: gradient 5% acetonitrile 3 min, to 50% in 2 min, to 85% in 15 min, held 3 min, 100 µL/min; settings: column: Zorbax Extend-C18 2.1 x 50 mm; eluents: water / acetonitrile, 0.1% formic acid
# strict inequality: RP-LC retention time < 1000 s yields rule met, everything else yields rule not met

Recorded results for 5 compounds are shown here.
COC(=O)c1ccc(Cl)cc1NC(=O)N1CCN(Cc2nc3cc(Cl)ccc3o2)CC1 :: rule not met
CC(C)(C)c1csc(-c2csc(S(=O)(=O)NCc3ccc(F)cc3F)c2)n1 :: rule not met
CCOc1cc(=O)n2c(c1C(=O)OCc1cccc(C)c1)CCCC2 :: rule met
CC(NC(=O)C1CCCN(c2cnc3nccnc3c2)C1)c1cccnc1 (centres undefined) :: rule met
CCOc1ccccc1-n1ccn(Cc2nc(-c3ccc(C)c(C)c3)no2)c(=O)c1=O :: rule met

## Input For `CC1CCN(c2cc(-n3cnc(C(=O)NC4CCCC4)c3)ncn2)CC1` , is the recorded RP-LC retention time below the cut-off of 1000 s?
## Output rule met

## Input For `CCOC(=O)c1cnc2nc(C)ccc2c1Nc1ccc(F)c(Cl)c1` , is the recorded RP-LC retention time below the cut-off of 1000 s?
## Output rule met

## Input For O=C(NCCC1=CCCCC1)C1CCCN(c2nccn3nc(-c4ccccc4Cl)cc23)C1 (centres undefined) , is the recorded RP-LC retention time below the cut-off of 1000 s?
## Output rule not met

## Input For `CC(C)c1cnn2c(NCc3ccccc3)cc(NCCCCCCN)nc12` , is the recorded RP-LC retention time below the cut-off of 1000 s?
## Output rule met

* * *

test: gradient 5% acetonitrile 3 min, to 50% in 2 min, to 85% in 15 min, held 3 min, 100 µL/min; conditions: column: Zorbax Extend-C18 2.1 x 50 mm; eluents: water / acetonitrile, 0.1% formic acid
Short version: RP-LC retention time at least 700 s is yes, less is no.

O=C(c1ccc(OCC2CCN(C(=O)c3ccsc3)CC2)cc1)N1CCOCC1 :: no
Cc1[nH]c(C(=O)N2CCCC(C(=O)NC(c3cccs3)C(C)C)C2)c(C)c1C(=O)OC(C)C (stereo not given) :: yes
O=C(Cc1csc2nc(-c3ccccc3)cn12)Nc1ccc(Br)cc1F :: yes

## Input In plain terms: is recorded RP-LC retention time at least 700 s for CCOc1cc(C(=O)NC2CCN(c3cc(-c4ccc(Cl)cc4)[nH]n3)C2)cc(OCC)c1OCC (stereo not given) ?
## Output yes

* * *

assay: gradient 5% acetonitrile 3 min, to 50% in 2 min, to 85% in 15 min, held 3 min, 100 µL/min; conditions: column: Zorbax Extend-C18 2.1 x 50 mm; eluents: water / acetonitrile, 0.1% formic acid
So basically every entry gets a class from its RP-LC retention time, ranges being bottom end (below 700 s), midrange (700 s to below 900 s), top end (900 s or more)

Recorded results for 5 compounds are shown here.
CC(=O)N1CCc2cc(-c3ccc(C(=O)NCCN4CCCCCC4)cc3)ccc21 :: bottom end
COc1cccc(C(=O)Nc2cccc(-c3nc4ncccc4o3)c2)c1 :: midrange
CCN1CCN(CCNC(=O)C2CCN(C(=O)c3ccc(-n4ccc5ccccc54)s3)CC2)CC1 :: bottom end
C=CCNC(=O)CCc1c(-c2ccc(Br)cc2)nc2ccccn12 :: bottom end
O=C(Cn1cccc1-c1nc(-c2ccc(Cl)cc2)cs1)NCCCN1CCCC1 :: midrange

## Input Which category does the recorded RP-LC retention time put `Cc1cccc(-c2nc3cnccn3c2NCCC(=O)NCC(C)C)c1` in?
## Output bottom end

## Input Which category does the recorded RP-LC retention time put `O=C(Nc1ccccc1)C(=O)c1ccc[nH]1` in?
## Output midrange

## Input Which category does the recorded RP-LC retention time put `Cc1ccc(CNC(=O)c2nc(Cn3c(=O)oc4ccc(Cl)cc43)no2)cc1` in?
## Output top end

## Input Which category does the recorded RP-LC retention time put COC(=O)c1ncn2c1C(=O)N(c1ccc(C)c(C)c1)C(C)(C(=O)NC1CCCC1)C2 (centres undefined) in?
## Output midrange

## Input Which category does the recorded RP-LC retention time put `Cc1cc(-c2nnc(-c3ccco3)o2)c(C)n1CC(=O)NCc1cc(F)cc(F)c1` in?
## Output midrange

* * *

assay: gradient 5% acetonitrile 3 min, to 50% in 2 min, to 85% in 15 min, held 3 min, 100 µL/min; conditions: column: Zorbax Extend-C18 2.1 x 50 mm; eluents: water / acetonitrile, 0.1% formic acid
Please provide measured RP-LC retention time for the entries that follow.
One number for each entry, in s.

Worked set:
COc1ccc2c(c1)C1(CCN(S(=O)(=O)c3cc(F)cc(F)c3)C1)C(=O)N2 (stereo not drawn) :: 872
CCCN1C(=O)COc2ccc(-c3csc(NC(=O)COC)n3)cc21 :: 823
Cc1nc2cc3c(cc2n1CC(=O)Nc1cccc(C(F)(F)F)c1)OCCO3 :: 712
COc1ccc(-c2noc(Cn3ccn(-c4ccc(Cl)cc4)c(=O)c3=O)n2)cc1OC :: 803
O=C(Nc1nc(CC(=O)N2CCCc3ccccc32)cs1)c1ccco1 :: 743

Dear reader, for each entry below, please note its RP-LC retention time.
1. Cc1nn(C)c(C)c1C(=O)N1CCC2(CCC2O)CC1 (stereo not drawn)
2. CCCCOC(=O)C1=C(C)NC(=O)NC1c1ccc(OCCC)c(OC)c1 (stereo not drawn)
3. COC(=O)CNC(=O)N1CCCC1c1cccc(F)c1 (stereo not drawn)

## Output
1: 600; 2: 884; 3: 701
